Entry source: patent US10947317B2

Tested on: OVCAR3 (ovarian adenocarcinoma cell line)
Assay: Cytotoxicity assay (CellTiter-Glo), OVCAR-3
Type: cell-based
Settings: Table VB, 72 hours or 6 days
Experimental: OVCAR3 (ovarian adenocarcinoma cell line, not amplified, ATCC, Cat.#HTB-161) was cultured in RPMI medium with 20% FBS. […] For the cytotoxicity assay, cells were seeded at a density of 5000 cells per well in 96 well plates and allowed to attach during overnight incubation at 37° C. in the presence of 5% CO2. […] Cell survival was measured using CellTiter-Glo® Luminescent Cell Viability Assay (Promega, Madison, Wis.) as described in the kit instructions. […]
Where a SMILES comes first, the peptide text is derived from it. [ ]: non-standard residue; d: D form. The star is where a group is joined. Dolaproine = CO[C@@H]([C@@H]1CCCN1)[C@@H](C)C(=O)O; Dil = CC[C@H](C)[C@H](NC)[C@@H](CC(=O)O)OC; NMe2Val = CC(C)[C@@H](C(=O)*)N(C)C; NH(3-hydroxypropyl) = OCCCN*
Metric name: IC50 (nM)
Your answer should be a plain number; it is taken to be in nM.

QUERY: Look up and report measured IC50 for this entry: CC[C@H](C)[C@@H]([C@@H](CC(=O)N1CCC[C@H]1[C@H](OC)[C@@H](C)C(=O)N[C@@H](Cc1ccccc1)C(=O)NCCCO)OC)N(C)C(=O)[C@@H](NC(=O)[C@H](C(C)C)N(C)C)C(C)C [AF-HPA, Auristatin F-hydroxypropylamide] (NMe2Val-V[Dil][Dolaproine]F-{NH(3-hydroxypropyl)})
RESULT: 1.34
